The reported numbers originate from patent EP1614683B1.

Give T1/2 for every item shown.
Conditions: mouse, in vivo, po, 50 mg/kg, pH 2.3
Numbers only, in min.

Examples from the recorded data:
CCNC(=O)c1ccccc1Sc1ccc2c(/C=C/c3ccccn3)n[nH]c2c1 | 54
O=C(NCC1CC1)c1ccccc1Sc1ccc2c(/C=C/c3ccccn3)n[nH]c2c1 | 60
O=C(Nc1cccc(C(=O)c2ccc3c(/C=C/c4ccccn4)n[nH]c3c2)c1)c1ccncc1 | 66
O=C(Nc1cccc(C(=O)c2ccc3c(-c4nc5ccccc5[nH]4)n[nH]c3c2)c1)c1ccccc1 | 180
O=C(Nc1cccc(Cl)c1)c1ccccc1Sc1ccc2c(/C=C/c3ccccn3)n[nH]c2c1 | 54

For each listed entry, give its T1/2.
1. Cc1cc(C(=O)Nc2cccc(C(=O)c3ccc4c(/C=C/c5ccccn5)n[nH]c4c3)c2)n[nH]1
2. C#CCNC(=O)c1ccccc1Sc1ccc2c(/C=C/c3ccccn3)n[nH]c2c1

Response line:
1. 42
2. 54

Field T1/2 (entry O=C(NC1CCC1)c1ccccc1Sc1ccc2c(/C=C/c3ccccn3)n[nH]c2c1 ) reads 294

----------
Molecular target: phosphorylated VEGF-R2Δ50 (Homo sapiens, UniProt P35968, DEL940-989/E990V)
Sequence (P35968 with tags, fused parts or gaps DEL940-989/E990V limits assumed): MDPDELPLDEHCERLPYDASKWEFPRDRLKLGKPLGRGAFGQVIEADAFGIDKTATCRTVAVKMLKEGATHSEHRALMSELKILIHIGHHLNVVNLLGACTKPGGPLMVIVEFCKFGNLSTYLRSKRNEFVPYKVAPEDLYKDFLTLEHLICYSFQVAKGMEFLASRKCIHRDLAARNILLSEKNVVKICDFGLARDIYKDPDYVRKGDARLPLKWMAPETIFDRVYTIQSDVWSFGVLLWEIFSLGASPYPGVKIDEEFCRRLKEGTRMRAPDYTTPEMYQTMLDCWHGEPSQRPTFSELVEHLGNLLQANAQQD
Assay: biochemical
Details: read-out: FLVK -P** (% inhibition)
Value kind: inhibition at 0.05 µM (%)
One number for each entry, in %.

O=C(Cc1cc(F)cc(F)c1)Nc1cccc(C(=O)c2ccc3c(/C=C/c4ccccn4)n[nH]c3c2)c1 [Reference Example 41(f)] | 84
O=C(NC1CC1)c1ccccc1Sc1ccc2c(/C=C/c3ccccn3)n[nH]c2c1 [Reference Example 33(e)] | 70

The observed inhibition at 0.05 µM for O=C(Nc1ccc(N2CCNCC2)c(C(F)(F)F)c1)c1ccccc1Sc1ccc2c(/C=C/c3ccccc3)n[nH]c2c1 [Reference Example 38(b)] when tested with phosphorylated VEGF-R2Δ50 (Homo sapiens, UniProt P35968, DEL940-989/E990V) stands at 72

----------
Target: human CHK1 (FL-CHK1) (Homo sapiens)
Construct: C-terminally His-tagged full-length human CHK1 (FL-CHK1) was expressed using the baculovirus/insect cell system; made in house; host or cells: baculovirus/insect cell system
Sequence (O14757 whole entry): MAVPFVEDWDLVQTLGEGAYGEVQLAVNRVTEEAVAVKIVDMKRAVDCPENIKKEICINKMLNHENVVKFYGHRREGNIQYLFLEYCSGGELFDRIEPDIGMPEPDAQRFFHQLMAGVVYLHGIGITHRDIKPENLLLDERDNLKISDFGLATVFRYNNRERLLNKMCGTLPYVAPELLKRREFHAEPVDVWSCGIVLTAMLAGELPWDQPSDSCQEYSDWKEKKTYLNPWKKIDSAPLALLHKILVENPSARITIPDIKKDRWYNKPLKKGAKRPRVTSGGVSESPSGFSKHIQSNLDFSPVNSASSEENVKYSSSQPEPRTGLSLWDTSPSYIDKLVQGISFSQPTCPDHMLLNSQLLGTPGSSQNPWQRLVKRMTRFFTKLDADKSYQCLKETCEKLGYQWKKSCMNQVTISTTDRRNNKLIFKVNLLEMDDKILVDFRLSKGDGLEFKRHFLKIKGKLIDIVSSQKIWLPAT
Test: CHK1 coupled spectrophotometric assay
Type: biochemical
Conditions: read-out: CHK-1* (Ki); Table 3
Value kind: pKi
Give bare numbers, as −log10 of the molar value.

Let me check: Fc1ccc(F)c(/C=C/c2n[nH]c3cc(-c4ccncc4)ccc23)c1 [Reference Example 29(s)] , system human CHK1 (FL-CHK1) (Homo sapiens), measured pKi is 4.96

----------
Exercise: state measured inhibition at 0.05 µM for each of the molecules provided.
Biological target: unphosphorylated VEGF-R2Δ50 (Homo sapiens, UniProt P35968, DEL940-989/E990V)
Sequence (P35968 with tags, fused parts or gaps DEL940-989/E990V limits assumed): as the sequence (P35968 with tags, fused parts or gaps DEL940-989/E990V limits assumed) above
Experiment: biochemical
Conditions: read-out: FLVK ** (% inhibition)
Numbers only, in %.

Observe how each entry below is paired with its result.
CC(C)NC(=O)c1ccccc1Sc1ccc2c(/C=C/c3ccccn3)n[nH]c2c1 [Reference Example 35(b)] | 49
O=C(NCC1CC1)c1ccccc1Sc1ccc2c(/C=C/c3ccccn3)n[nH]c2c1 [Reference Example 35(v)] | 72
O=C(c1cccc(NC(=O)c2ccccn2)c1)c1ccc2c(/C=C/c3ccccc3)n[nH]c2c1 | 100
Cc1cc(C(=O)Nc2cc(C(=O)c3ccc4c(/C=C/c5ccccn5)n[nH]c4c3)ccc2C)n(C(C)C)n1 [Reference Example 41(kk)] | 100
CC(=O)Nc1cc(C(=O)c2ccc3c(/C=C/c4ccccn4)n[nH]c3c2)ccc1C [Reference Example 41(gg)] | 84
CCCNC(=O)c1ccccc1Sc1ccc2c(/C=C/c3ccccn3)n[nH]c2c1 [Reference Example 35(a)] | 76
O=C(Nc1cccc(C(=O)c2ccc3c(/C=C/c4ccccc4)n[nH]c3c2)c1)c1ccnc(Cl)c1 | 89
O=C(NCc1ccco1)c1ccccc1Sc1ccc2c(/C=C/c3ccccn3)n[nH]c2c1 [Reference Example 35(bb)] | 87
Cn1cccc1C(=O)NNC(=O)c1ccccc1Sc1ccc2c(/C=C/c3ccccn3)n[nH]c2c1 [Reference Example 35(e)] | 99
C=CCn1nc(C)cc1C(=O)Nc1cc(C(=O)c2ccc3c(/C=C/c4ccccn4)n[nH]c3c2)ccc1C [Reference Example 41(ff)] | 98

Would you mind listing inhibition at 0.05 µM for each of the following molecules?
1. COc1ccc(CNC(=O)c2ccccc2Sc2ccc3c(/C=C/c4ccccn4)n[nH]c3c2)cc1 [Reference Example 35(g)]
2. Cc1cc(C(=O)Nc2cccc(C(=O)c3ccc4c(/C=C/c5ccccn5)n[nH]c4c3)c2)n(C(C)C)n1 [Reference Example 41(x)]
3. Cc1ccc(CNC(=O)c2ccccc2Sc2ccc3c(/C=C/c4ccccn4)n[nH]c3c2)o1 [Reference Example 35(h)]
4. C=C(C)CNC(=O)c1ccccc1Sc1ccc2c(/C=C/c3ccccn3)n[nH]c2c1 [Reference Example 35(ee)]
5. O=C(Nc1nccs1)c1ccccc1Sc1ccc2c(/C=C/c3ccccn3)n[nH]c2c1 [Reference Example 35(y)]
6. Cc1cc(C(=O)Nc2cccc(C(=O)c3ccc4c(/C=C/c5ccccn5)n[nH]c4c3)c2)cc(Cl)n1 [Reference Example 41(q)]
7. CC(=O)Nc1cc(C(=O)c2ccc3c(/C=C/c4ccccn4)n[nH]c3c2)c(C)cc1C [Reference Example 41(nn)]

Response line:
1: 100; 2: 98; 3: 100; 4: 82; 5: 99; 6: 100; 7: 57

Kindly give each listed record's inhibition at 0.05 µM.
1. O=C(NC1CC1)c1cccc(F)c1Sc1ccc2c(/C=C/c3ccccn3)n[nH]c2c1 [Reference Example 37(b)]
2. O=C(Nc1cccc(C(=O)c2ccc3c(/C=C/c4ccccn4)n[nH]c3c2)c1)Oc1ccccc1 [Reference Example 41(cc)]
3. CNCCNC(=O)c1ccccc1Sc1ccc2c(/C=C/c3ccccn3)n[nH]c2c1 [Reference Example 35(gg)]
4. Cc1cc(C)c(C(=O)c2ccc3c(/C=C/c4ccccn4)n[nH]c3c2)cc1N [Reference Example 40(c)]
5. CCn1nc(C)cc1C(=O)Nc1cccc(Oc2ccc3c(/C=C/c4cn(C)c(C)n4)n[nH]c3c2)c1 [Reference Example 31(f)]
6. CC(C)=CC(=O)Nc1cccc(C(=O)c2ccc3c(/C=C/c4ccccn4)n[nH]c3c2)c1 [Reference Example 41(dd)]
7. Cc1cc(C(=O)Nc2cc(Nc3ccc4c(/C=C/c5ccccn5)n[nH]c4c3)c(F)cc2C)n(C)n1

Response line:
[48, 97, 23, 24, 97, 98, 97]

Can you give me inhibition at 0.05 µM for all of these, one by one?
1. CN(O)C(=O)c1ccccc1Sc1ccc2c(/C=C/c3ccccn3)n[nH]c2c1 [Reference Example 35(o)]
2. CC(C)COC(=O)Nc1cccc(C(=O)c2ccc3c(/C=C/c4ccccn4)n[nH]c3c2)c1 [Reference Example 41(y)]

Response line:
1: 39; 2: 98

Please supply inhibition at 0.05 µM for each of the following items, keeping them in order.
1. CCOCCNC(=O)c1ccccc1Sc1ccc2c(/C=C/c3ccccn3)n[nH]c2c1 [Reference Example 35(z)]
2. CNC(=O)c1cccc(F)c1Sc1ccc2c(/C=C/c3ccccn3)n[nH]c2c1 [Reference Example 37(d)]
3. CCNC(=O)c1ccccc1Sc1ccc2c(/C=C/c3ccccn3)n[nH]c2c1 [Reference Example 35(x)]

Response line:
[95, 26, 75]
